For each entry below, report its TGI value.
# Tested on: OVCAR-5 ovarian
# PROTOCOL_DETAILS: NCI tumour cell line growth inhibition, 48 h

Some compounds with known TGI results, for comparison:
COMPOUND	ASSAYED_TARGET	TGI
Cc1ccc(CN2CCC(C(=O)Nc3ccc(-c4cc5ccccc5[nH]4)cc3)CC2)o1	OVCAR-5 ovarian	> 100 µM
Fc1ccc(NC(=S)SCc2ccc3c(c2)OCO3)cc1F	OVCAR-5 ovarian	46.3 µM
C#CCNC(CS)C(=O)O (stereo unspecified)	OVCAR-5 ovarian	> 100 µM
CC(=O)O[C@@H]1[C@H](C(C)C)[C@@H](OC(C)=O)C/C(C)=C/CC[C@]2(C)O[C@@H]12	OVCAR-5 ovarian	> 100 µM
COC(=O)/C(C#N)=C1\NC(=O)c2ccccc21	OVCAR-5 ovarian	> 100 µM

// for each compound in input: emit TGI
1. Fc1[nH]nc2ccc([C@@H]3Nc4ccc5[nH]ncc5c4[C@H]4C5CCC(C5)[C@@H]34)cc12 (stereo partly specified)
2. O=C(CCc1nc(=S)[nH][nH]1)Nc1ccc(Cl)c(Cl)c1
3. NC(=O)NCCCC(NC(=O)OCCCCn1ccc(=O)[nH]c1=O)C(=O)O (stereo unspecified)

1. 14.6 µM
2. > 100 µM
3. > 100 µM

List TGI for every entry below, keeping the order given.
1. O=c1c2cc([N+](=O)[O-])cnc2sn1-c1ccc([N+](=O)[O-])cc1
2. COc1cc2nc3n(c(=O)c2cc1OC)-c1ccc([N+](=O)[O-])cc1C3=O
3. Cc1ccnc2c1ccc1c(C)ccnc12

["> 100 µM", "> 100 µM", "19 µM"]
